This listing pairs compounds with measured LTopIB inhibition.
# System: Leishmania topoisomerase IB (LTopIB)
# Assay text: Relaxation of supercoiled pSK DNA by recombinant LTopIB
# Format: biochemical
# Design: key: +++: inhibition at 1 μM; ++: inhibition at 10 μM; +: inhibition at 100 μM; 0: no inhibition
# Condition label: Table 3
Please reply with the number alone, leaving off any unit.

| Mol | Observed |
| --- | --- |
| COc1ccc2c(c1)C(=O)c1c-2n(CCCN2CCOCC2)c(=O)c2cc([N+](=O)[O-])ccc12 | 0 |

Just so you know, measured LTopIB inhibition for O=C1c2ccccc2-c2c1c1ccc([N+](=O)[O-])cc1c(=O)n2CCCN1CCOCC1 came out at 0

---

# System tested: human Top IB (hTopIB) (Homo sapiens)
# Construct: made in house
# Sequence (P11387 whole entry): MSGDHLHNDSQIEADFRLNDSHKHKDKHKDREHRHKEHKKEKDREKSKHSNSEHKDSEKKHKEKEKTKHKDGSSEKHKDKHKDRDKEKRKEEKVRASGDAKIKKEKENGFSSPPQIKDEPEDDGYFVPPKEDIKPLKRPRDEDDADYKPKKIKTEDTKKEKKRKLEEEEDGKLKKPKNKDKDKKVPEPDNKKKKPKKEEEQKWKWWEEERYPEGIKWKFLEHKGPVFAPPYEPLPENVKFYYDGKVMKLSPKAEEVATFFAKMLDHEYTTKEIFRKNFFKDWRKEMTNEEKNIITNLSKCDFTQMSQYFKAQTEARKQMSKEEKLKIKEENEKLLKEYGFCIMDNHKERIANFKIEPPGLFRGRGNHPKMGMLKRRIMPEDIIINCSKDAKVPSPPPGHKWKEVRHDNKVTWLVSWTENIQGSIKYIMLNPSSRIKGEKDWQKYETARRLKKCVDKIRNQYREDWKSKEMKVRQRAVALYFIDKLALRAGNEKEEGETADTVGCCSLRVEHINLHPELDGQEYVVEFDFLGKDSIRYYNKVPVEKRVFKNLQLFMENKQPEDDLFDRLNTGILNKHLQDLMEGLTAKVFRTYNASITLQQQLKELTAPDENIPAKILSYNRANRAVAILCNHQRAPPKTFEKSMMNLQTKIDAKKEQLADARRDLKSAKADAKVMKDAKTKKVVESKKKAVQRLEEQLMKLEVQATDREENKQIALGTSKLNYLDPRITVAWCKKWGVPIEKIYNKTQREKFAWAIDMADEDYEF
# Assay text: Relaxation of supercoiled pSK DNA by recombinant hTopIB
# Type: biochemical
# Condition label: Table 1
Readout type: hTopIB inhibition

These solved cases illustrate the format of a correct answer.
| Mol | Readout type | Observed |
| --- | --- | --- |
| NCCCn1c2c(c3ccc([N+](=O)[O-])cc3c1=O)C(=O)c1cc3c(cc1-2)OCO3 | hTopIB inhibition | +++ (inhibition at 1 μM) |
| NCCCn1c2c(c3ccc([N+](=O)[O-])cc3c1=O)C(=O)c1cc(F)ccc1-2 | hTopIB inhibition | +++ (inhibition at 1 μM) |
| COc1ccc2c(c1)C(=O)c1c-2n(CCCN)c(=O)c2cc([N+](=O)[O-])ccc12 | hTopIB inhibition | +++ (inhibition at 1 μM) |
| CCOc1ccc2c(c1)C(=O)c1c-2n(CCCN)c(=O)c2cc([N+](=O)[O-])ccc12 | hTopIB inhibition | +++ (inhibition at 1 μM) |
| NCCCn1c2c(c3ccccc3c1=O)C(=O)c1ccccc1-2 | hTopIB inhibition | ++ (inhibition at 10 μM) |

Documented hTopIB inhibition of NCCCCCn1c2c(c3ccccc3c1=O)C(=O)c1ccccc1-2 : +++ (inhibition at 1 μM)

Reported hTopIB inhibition for NCCCn1c2c(c3ccc([N+](=O)[O-])cc3c1=O)C(=O)c1cc(Br)ccc1-2 was +++ (inhibition at 1 μM)

Input NCCn1c2c(c3ccccc3c1=O)C(=O)c1ccccc1-2 . Output hTopIB inhibition: ++ (inhibition at 10 μM)

Given item COC(=O)c1ccc2c(c1)C(=O)c1c-2n(CCCN)c(=O)c2cc([N+](=O)[O-])ccc12 , the value recorded as its hTopIB inhibition is +++ (inhibition at 1 μM)

So, NCCCCn1c2c(c3ccccc3c1=O)C(=O)c1ccccc1-2 ? Its hTopIB inhibition was +++ (inhibition at 1 μM)

---

Recorded EC50, one value per entry.
# Test system: iRFP L. infantum amastigotes infecting mouse splenocytes
# Assay text: Antileishmanial activity on iRFP L. infantum amastigotes in ex vivo murine splenic explants
# Assay type: cell-based, Leishmania infantum
# Condition label: Leishmania infantum, Splenocyte; splenic-infecting iRFP L. infantum amastigotes, 72 h, 37 °C; read-out: EC50 (μM) L. infantum amastigotes

Look over these answered cases.
| Molecule | EC50 |
| --- | --- |
| O=C1c2ccccc2-c2c1c1ccc([N+](=O)[O-])cc1c(=O)n2CCCn1ccnc1 [Compound 11] | 0.06 µM |
| COc1cnc2c(c1)C(=O)c1c-2n(CCCN2CCOCC2)c(=O)c2cc(OC)c(OC)cc12 [Compound 18] | 0.13 µM |

# NCCCn1c2c(c3ccc([N+](=O)[O-])cc3c1=O)C(=O)c1cc(Br)ccc1-2 [Compound 6] with iRFP L. infantum amastigotes infecting mouse splenocytes: EC50 is 0.13 µM
